Entry source: ChEMBL document CHEMBL5550211

- assay-details: Drug concentration in mouse brain at 5 mg/kg, po after 2 hrs
- Assay type: ADME, organism-based
- experimental-context: read-out: Ct
assay-readout: concentration at 2 h (ng/g)
Give bare numbers, in ng/g.

Problem: Name the recorded concentration at 2 h for Cc1c(Nc2c(F)ccc(NS(=O)(=O)CCCF)c2Cl)ccc2ncn(C)c(=O)c12 .
Result: 590

----------
I'd be grateful if you could share measured Papp A→B for these entries.
- assay-details: Apparent permeability across apical to basolateral side in LLC-PK1 cells
- Type: ADME, cell-based, Sus scrofa
- experimental-context: pig
Give bare numbers, in nm/s.

1) CC(C)(C)c1nc(-c2cccc(NS(=O)(=O)c3c(F)cccc3F)c2F)c(-c2ccnc(N)n2)s1 [DABRAFENIB]: 290
2) CCCS(=O)(=O)Nc1ccc(F)c(Nc2ccc3ncn(C)c(=O)c3c2F)c1Cl: 330
3) CCCS(=O)(=O)Nc1ccc(Cl)c(N(C)c2ccc3ncn(C)c(=O)c3c2)c1F: 370
4) CCCS(=O)(=O)Nc1ccc(F)c(N(C)c2ccc3ncn(C)c(=O)c3c2)c1Cl: 280
5) Cc1c(Nc2c(F)ccc(NS(=O)(=O)C3CC3)c2Cl)ccc2ncn(C)c(=O)c12: 220

Batch request: Papp A→B for each of the following compounds.
1. CCCS(=O)(=O)Nc1ccc(F)c(C(=O)c2c[nH]c3ncc(-c4ccc(Cl)cc4)cc23)c1F [VEMURAFENIB]
2. CCCS(=O)(=O)Nc1ccc(F)c(Nc2ccc3ncn(CC)c(=O)c3c2C)c1Cl
3. CCC(C)S(=O)(=O)Nc1ccc(F)c(Nc2ccc3ncn(C)c(=O)c3c2C)c1Cl (centres undefined)

Result:
1. 30
2. 300
3. 270

----------
- assay-details: Substrate activity at BCRP in LLC-PK1 cells assessed as efflux ratio of apparent permeability from basolateral to apical side over apical to basolateral side
- Format: ADME, cell-based, Sus scrofa
- experimental-context: pig
Threshold check on Ratio: at or above 2 gives rule met, strictly below gives rule not met.

Problem: Would you say CCCS(=O)(=O)Nc1ccc(F)c(Nc2ccc3ncn(CC4CC4)c(=O)c3c2C)c1Cl shows Ratio at minimum 2?
Result: rule not met

Problem: What do we get for CCCS(=O)(=O)Nc1ccc(F)c(Nc2ccc3ncn(C)c(=O)c3c2C)c1Cl ?
Result: rule not met

Problem: Now the compound CCCS(=O)(=O)Nc1ccc(Cl)c(N(C)c2ccc3ncn(C)c(=O)c3c2)c1F
Result: rule met

Problem: What do you have for Cc1c(Nc2c(F)ccc(NS(=O)(=O)CC(C)C)c2Cl)ccc2ncn(C)c(=O)c12 ?
Result: rule not met

Problem: // query: CCCS(=O)(=O)Nc1ccc(Cl)c(Nc2ccc3ncn(C)c(=O)c3c2)c1F
Result: rule met

Problem: Now the same for CCCS(=O)(=O)Nc1ccc(F)c(N(CC)c2ccc3ncn(C)c(=O)c3c2)c1F
Result: rule not met

----------
- measured-on: Serine/threonine-protein kinase B-raf (Homo sapiens, UniProt P15056, V600E)
- Sequence (P15056 2-766 V600E limits assumed): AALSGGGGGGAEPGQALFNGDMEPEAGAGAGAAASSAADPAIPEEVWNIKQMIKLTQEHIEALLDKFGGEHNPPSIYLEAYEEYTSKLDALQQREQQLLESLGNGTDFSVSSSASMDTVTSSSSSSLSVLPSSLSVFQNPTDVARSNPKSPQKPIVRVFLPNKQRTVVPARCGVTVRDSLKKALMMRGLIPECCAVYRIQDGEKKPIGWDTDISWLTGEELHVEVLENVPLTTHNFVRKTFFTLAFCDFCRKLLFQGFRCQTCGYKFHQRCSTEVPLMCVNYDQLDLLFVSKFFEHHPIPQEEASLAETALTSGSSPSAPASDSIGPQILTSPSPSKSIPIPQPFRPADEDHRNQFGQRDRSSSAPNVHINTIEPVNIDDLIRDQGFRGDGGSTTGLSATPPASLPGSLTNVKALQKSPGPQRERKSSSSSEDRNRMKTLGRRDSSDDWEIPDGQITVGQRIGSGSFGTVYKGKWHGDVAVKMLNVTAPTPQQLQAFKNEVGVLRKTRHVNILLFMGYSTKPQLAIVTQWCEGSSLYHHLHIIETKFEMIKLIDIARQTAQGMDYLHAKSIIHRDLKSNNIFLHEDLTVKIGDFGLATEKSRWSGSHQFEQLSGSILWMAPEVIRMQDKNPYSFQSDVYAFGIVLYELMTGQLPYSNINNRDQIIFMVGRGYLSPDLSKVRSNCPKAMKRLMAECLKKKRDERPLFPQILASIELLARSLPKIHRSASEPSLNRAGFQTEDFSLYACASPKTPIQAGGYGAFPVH
- assay-details: Inhibition of BRAF V600E mutant in human A-375 cells assessed as reduction in ERK phosphorylation
- Type: cell-based
assay-readout: pIC50
One number for each entry, as −log10 of the molar value.

1. CCC(C)S(=O)(=O)Nc1ccc(F)c(Nc2ccc3ncn(C)c(=O)c3c2C)c1Cl (centres undefined): 6.95
2. CCCS(=O)(=O)Nc1ccc(F)c(N(CC)c2ccc3ncn(C)c(=O)c3c2)c1F: 6.71

I would be grateful if you could provide pIC50 for each of the following entries.
1. CCCS(=O)(=O)Nc1ccc(F)c(N(C)c2ccc3ncn(C)c(=O)c3c2)c1Cl
2. CCS(=O)(=O)Nc1ccc(F)c(Nc2ccc3ncn(C)c(=O)c3c2C)c1Cl

Result:
1. 6.75
2. 6.77

----------
- assay-details: Apparent permeability across apical to basolateral side in LLC-PK1 cells
- Assay type: ADME, cell-based, Sus scrofa
- experimental-context: pig
Would you kindly list Papp A→B for each of these molecules?
Numbers only, in ×10⁻⁶ cm/s.

1) CCCS(=O)(=O)Nc1ccc(F)c(Oc2ccc3ncn(C)c(=O)c3c2)c1F: 29
2) COC(=O)N[C@@H](C)CNc1nccc(-c2cn(C(C)C)nc2-c2cc(Cl)cc(NS(C)(=O)=O)c2F)n1: 11
3) Cc1c(Nc2c(F)ccc(NS(=O)(=O)CC3CC3)c2Cl)ccc2ncn(C)c(=O)c12: 29
4) CCCS(=O)(=O)Nc1ccc(Cl)c(Nc2ccc3ncn(C)c(=O)c3c2)c1F: 48

Give measured Papp A→B for every item shown.
1. CCCS(=O)(=O)Nc1ccc(F)c(Nc2ccc3ncn(C4CC4)c(=O)c3c2C)c1Cl
2. CCCS(=O)(=O)Nc1ccc(F)c(Nc2ccc3ncn(C)c(=O)c3c2OC)c1Cl

Result:
1: 25; 2: 22
